Test: yeast display, Sf9 membrane polyspecificity reagent, FACS + sequencing; frameworks hold sequencing errors
assay metric: polyreactivity (PSR sort gate)

{"columns": ["ordered residues", "polyreactivity (PSR sort gate)"],
 "data": [
  ["QVQLVESGGGLVQAGGSLRLSCAASGSIFGYNAMGWYRQAPGKERELVAAISLTTGSTYYADSVKGRFTISRDNAKNTVYLQMNCLNPEDTAVYYCAAVDADYYYWGQGTQVTVSS", "high polyreactivity"],
  ["QVQLVESGGGLVQAGGSLRLSCAASGFIFGDYAMGWYRQAPGKERELVAAISRSGGRTYYADSVKGRFTISRDNAKNTVYLQMNSLKPEDTAVYDCAKSCLNIYDYWGQVTQVTVSS", "high polyreactivity"],
  ["QVQLVESGGGLVQAGGSLRLSCAASGFIFIEYTMGWYRQAPGKERQLVAAISSGGNTYYADSVKGRFTISRDNAKNTVYLQMNSLKPEDTAVYYCNADNYAFYTQRPLDGSATYDYWGQGTQVTVSS", "low polyreactivity"],
  ["QVQLVESGGGLVQAGGSLRLSCAASGRTFVPYAMGWYRQAPGKERELVAAISWSSVSTYYADSVKGRFTISRDNAKNTVYLQMNSLKPEDTAVYYCAAEYYTRVAEYYYWGQGTQVTVSS", "high polyreactivity"],
  ["QEQLVESGGGLVQAGGSLRLSCAAYGSTYNSYVMGWNRQAPVKERELVAAISTSGGRTYYADSVKGRFTISRDNAKNTVYLKMISLKPEDTAVYYCNRVFLKYYESTHWRDYWGQGTKVTVSS", "high polyreactivity"]
]}

*Q* Given the sequence QVQLVESVGGLVQAGGSLRLSCAASVYIFGYNAMGWYRQAPGKERELVAAISRSAGRTYYAVSVKGRFTISRDNAKNTVYLQMNSLKPEDTAVYYCAAQSYWLCYEYWGHGTQVTVSS , what is its reported polyreactivity (PSR sort gate)?
*A* high polyreactivity

====

Test: yeast display, Sf9 membrane polyspecificity reagent, FACS + sequencing; frameworks hold sequencing errors
assay metric: polyreactivity (PSR sort gate)

Below: 4 sequences and their reported polyreactivity (PSR sort gate).
{"columns": ["ordered residues", "polyreactivity (PSR sort gate)"],
 "data": [
  ["QVHLVESGGGLVQAGGSLRLICAASGSIFRRYAMGWYRQAPGKERELVASISSRGTRTYYADSVTWRFTISRDNAKNTVYLQMNSLKPEDTAVYYCAASYYTPYDYLGQGTQVTVSS", "high polyreactivity"],
  ["QGQLVESGGGLVQAGGSLRLSCAASGGIFTDYAMGWYRQAPGKERELVAAITRRGGRTYYADSVKGRFTISRDNAKNPVYLQMNSLKPEDTAVYYCAATRSGEYDYWGQGTQVTVSS", "high polyreactivity"],
  ["QVQLVESRGGLVQAGGSLRLSSAASGFTFRYYLMGWYRQAPRKERELVAAITWSGGTTNYADSVKGRFTISRDNAKNSVYLQMNSLKPEDTAVYYCNAARSRGANRVPPYRLYYWGQGTQVTVSS", "low polyreactivity"],
  ["QVQLVESGGGLVQAGGSLRLSCAASGFTLGRYAMGWYRQAPGKERELVAAISSGGRTYYADSVKGRFTISRDNAKNTVYLQMNSLKPEDTAVYYCAADPRYISYDYWGQGTQVTVSS", "low polyreactivity"]
]}

From here, focus on the item given below.
*Q* // polyreactivity (PSR sort gate) lookup, key: QVQLVESGGGLVQAGGSLRLSCAASGIFYFYAMGWYRQAPGKERELVAAITSSGGNTTYADSVKGRFTISRDNAKNTVYLQMNSLKPEDTAVYYCNAEAYSYGFDYWGQRTQVTVSS
*A* low polyreactivity

The measured values listed here are drawn from the nanobody polyreactivity screen of Harvey et al. (2022).
